The following sequences are listed with their measured thermal stability score values.
System: HeLa Kyoto
PROTOCOL: thermal stability score vs G1/S (z-score of summed log2 fold changes over temperatures); higher = more thermally stable than in G1/S
CONDITIONS USED: cell cycle stage: mitosis
PROPERTY MEASURED: thermal stability score

>  <SEQUENCE DATA>
MATKIDKEACRAAYNLVRDDGSAVIWVTFKYDGSTIVPGEQGAEYQHFIQQCTDDVRLFAFVRFTTGDAMSKRSKFALITWIGENVSGLQRAKTGTDKTLVKEVVQNFAKEFVISDRKELEEDFIKSELKKAGGANYDAQTE [COTL1]

>  <STUDY TARGET>
HeLa Kyoto

>  <READOUT NUMBER>
1.43

$$$$
>  <SEQUENCE DATA>
MGGPRGAGWVAAGLLLGAGACYCIYRLTRGRRRGDRELGIRSSKSAGALEEGTSEGQLCGRSARPQTGGTWESQWSKTSQPEDLTDGSYDDVLNAEQLQKLLYLLESTEDPVIIERALITLGNNAAFSVNQAIIRELGGIPIVANKINHSNQSIKEKALNALNNLSVNVENQIKIKIYISQVCEDVFSGPLNSAVQLAGLTLLTNMTVTNDHQHMLHSYITDLFQVLLTGNGNTKVQVLKLLLNLSENPAMTEGLLRAQVDSSFLSLYDSHVAKEILLRVLTLFQNIKNCLKIEGHLAVQPTFTEGSLFFLLHGEECAQKIRALVDHHDAEVKEKVVTIIPKI [ARMC10]

>  <STUDY TARGET>
HeLa Kyoto

>  <READOUT NUMBER>
1.04

$$$$
>  <SEQUENCE DATA>
MVKLTAELIEQAAQYTNAVRDRELDLRGYKIPVIENLGATLDQFDAIDFSDNEIRKLDGFPLLRRLKTLLVNNNRICRIGEGLDQALPCLTELILTNNSLVELGDLDPLASLKSLTYLSILRNPVTNKKHYRLYVIYKVPQVRVLDFQKVKLKERQEAEKMFKGKRGAQLAKDIARRSKTFNPGAGLPTDKKKGGPSPGDVEAIKNAIANASTLAEVERLKGLLQSGQIPGRERRSGPTDDGEEEMEEDTVTNGS [SNRPA1]

>  <STUDY TARGET>
HeLa Kyoto

>  <READOUT NUMBER>
-1.77

$$$$

###

Tested on: HeLa Kyoto
PROTOCOL: solubility change mitosis vs G1/S (difference of NP-40 vs SDS log2 ratios) (log2 ratio difference); higher = more soluble in mitosis

>  <SUBSTANCE>
MAAIAASEVLVDSAEEGSLAAAAELAAQKREQRLRKFRELHLMRNEARKLNHQEVVEEDKRLKLPANWEAKKARLEWELKEEEKKKECAARGEDYEKVKLLEISAEDAERWERKKKRKNPDLGFSDYAAAQLRQYHRLTKQIKPDMETYERLREKHGEEFFPTSNSLLHGTHVPSTEEIDRMVIDLEKQIEKRDKYSRRRPYNDDADIDYINERNAKFNKKAERFYGKYTAEIKQNLERGTAV [SYF2]

>  <STUDY TARGET>
HeLa Kyoto

>  <solubility change mitosis (log2)>
0.188

$$$$
>  <SUBSTANCE>
MSGELPPNINIKEPRWDQSTFIGRANHFFTVTDPRNILLTNEQLESARKIVHDYRQGIVPPGLTENELWRAKYIYDSAFHPDTGEKMILIGRMSAQVPMNMTITGCMMTFYRTTPAVLFWQWINQSFNAVVNYTNRSGDAPLTVNELGTAYVSATTGAVATALGLNALTKHVSPLIGRFVPFAAVAAANCINIPLMRQRELKVGIPVTDENGNRLGESANAAKQAITQVVVSRILMAAPGMAIPPFIMNTLEKKAFLKRFPWMSAPIQVGLVGFCLVFATPLCCALFPQKSSMSVTSLEAELQAKIQESHPELRRVYFNKGL [SFXN1]

>  <STUDY TARGET>
HeLa Kyoto

>  <solubility change mitosis (log2)>
-0.0506

$$$$
>  <SUBSTANCE>
MSSGAASGTGRGRPRGGGPGPGDPPPSETHKLVVVGGGGVGKSALTIQFIQSYFVSDYDPTIEDSYTKICSVDGIPARLDILDTAGQEEFGAMREQYMRAGHGFLLVFAINDRQSFNEVGKLFTQILRVKDRDDFPVVLVGNKADLESQRQVPRSEASAFGASHHVAYFEASAKLRLNVDEAFEQLVRAVRKYQEQELPPSPPSAPRKKGGGCPCVLL [RRAS]

>  <STUDY TARGET>
HeLa Kyoto

>  <solubility change mitosis (log2)>
-0.0644

$$$$
>  <SUBSTANCE>
MDPARKAGAQAMIWTAGWLLLLLLRGGAQALECYSCVQKADDGCSPNKMKTVKCAPGVDVCTEAVGAVETIHGQFSLAVRGCGSGLPGKNDRGLDLHGLLAFIQLQQCAQDRCNAKLNLTSRALDPAGNESAYPPNGVECYSCVGLSREACQGTSPPVVSCYNASDHVYKGCFDGNVTLTAANVTVSLPVRGCVQDEFCTRDGVTGPGFTLSGSCCQGSRCNSDLRNKTYFSPRIPPLVRLPPPEPTTVASTTSVTTSTSAPVRPTSTTKPMPAPTSQTPRQGVEHEASRDEEPRLTGGAAGHQDRSNSGQYPAKGGPQQPHNKGCVAPTAGLAALLLAVAAGVLL [LYPD3]

>  <STUDY TARGET>
HeLa Kyoto

>  <solubility change mitosis (log2)>
-0.185

$$$$
>  <SUBSTANCE>
MSGCRVFIGRLNPAAREKDVERFFKGYGRIRDIDLKRGFGFVEFEDPRDADDAVYELDGKELCSERVTIEHARARSRGGRGRGRYSDRFSSRRPRNDRRNAPPVRTENRLIVENLSSRVSWQDLKDFMRQAGEVTFADAHRPKLNEGVVEFASYGDLKNAIEKLSGKEINGRKIKLIEGSKRHSRSRSRSRSRTRSSSRSRSRSRSRSRKSYSRSRSRSRSRSRSKSRSVSRSPVPEKSQKRGSSSRSKSPASVDRQRSRSRSRSRSVDSGN [SRSF5]

>  <STUDY TARGET>
HeLa Kyoto

>  <solubility change mitosis (log2)>
0.302

$$$$
>  <SUBSTANCE>
MAAAAGRSLLLLLSSRGGGGGGAGGCGALTAGCFPGLGVSRHRQQQHHRTVHQRIASWQNLGAVYCSTVVPSDDVTVVYQNGLPVISVRLPSRRERCQFTLKPISDSVGVFLRQLQEEDRGIDRVAIYSPDGVRVAASTGIDLLLLDDFKLVINDLTYHVRPPKRDLLSHENAATLNDVKTLVQQLYTTLCIEQHQLNKERELIERLEDLKEQLAPLEKVRIEISRKAEKRTTLVLWGGLAYMATQFGILARLTWWEYSWDIMEPVTYFITYGSAMAMYAYFVMTRQEYVYPEARDRQYLLFFHKGAKKSRFDLEKYNQLKDAIAQAEMDLKRLRDPLQVHLPLRQIGEKD [MCU]

>  <STUDY TARGET>
HeLa Kyoto

>  <solubility change mitosis (log2)>
-0.0872

$$$$
>  <SUBSTANCE>
MAAAGGGGGGAAAAGRAYSFKVVLLGEGCVGKTSLVLRYCENKFNDKHITTLQASFLTKKLNIGGKRVNLAIWDTAGQERFHALGPIYYRDSNGAILVYDITDEDSFQKVKNWVKELRKMLGNEICLCIVGNKIDLEKERHVSIQEAESYAESVGAKHYHTSAKQNKGIEELFLDLCKRMIETAQVDERAKGNGSSQPGTARRGVQIIDDEPQAQTSGGGCCSSG [RAB21]

>  <STUDY TARGET>
HeLa Kyoto

>  <solubility change mitosis (log2)>
-0.0826

$$$$
>  <SUBSTANCE>
MCDFTEDQTAEFKEAFQLFDRTGDGKILYSQCGDVMRALGQNPTNAEVLKVLGNPKSDEMNVKVLDFEHFLPMLQTVAKNKDQGTYEDYVEGLRVFDKEGNGTVMGAEIRHVLVTLGEKMTEEEVEMLVAGHEDSNGCINYEAFVRHILSG [MYL6]

>  <STUDY TARGET>
HeLa Kyoto

>  <solubility change mitosis (log2)>
0.21

$$$$
>  <SUBSTANCE>
MAAERGAGQQQSQEMMEVDRRVESEESGDEEGKKHSSGIVADLSEQSLKDGEERGEEDPEEEHELPVDMETINLDRDAEDVDLNHYRIGKIEGFEVLKKVKTLCLRQNLIKCIENLEELQSLRELDLYDNQIKKIENLEALTELEILDISFNLLRNIEGVDKLTRLKKLFLVNNKISKIENLSNLHQLQMLELGSNRIRAIENIDTLTNLESLFLGKNKITKLQNLDALTNLTVLSMQSNRLTKIEGLQNLVNLRELYLSHNGIEVIEGLENNNKLTMLDIASNRIKKIENISHLTELQEFWMNDNLLESWSDLDELKGARSLETVYLERNPLQKDPQYRRKVMLALPSVRQIDATFVRF [PPP1R7]

>  <STUDY TARGET>
HeLa Kyoto

>  <solubility change mitosis (log2)>
0.033

$$$$
>  <SUBSTANCE>
MGPVRLGILLFLFLAVHEAWAGMLKEEDDDTERLPSKCEVCKLLSTELQAELSRTGRSREVLELGQVLDTGKRKRHVPYSVSETRLEEALENLCERILDYSVHAERKGSLRYAKGQSQTMATLKGLVQKGVKVDLGIPLELWDEPSVEVTYLKKQCETMLEEFEDIVGDWYFHHQEQPLQNFLCEGHVLPAAETACLQETWTGKEITDGEEKTEGEEEQEEEEEEEEEEGGDKMTKTGSHPKLDREDL [CNPY4]

>  <STUDY TARGET>
HeLa Kyoto

>  <solubility change mitosis (log2)>
0.223

$$$$
>  <SUBSTANCE>
ARHGEF5

>  <STUDY TARGET>
HeLa Kyoto

>  <solubility change mitosis (log2)>
-0.0134

$$$$
